molecular target: Diaphorase; test: peptide array, 1 uM labeled diaphorase, no FAD
measurement name: fluorescence

A = YRFQSGLPAKDGSG
B = RLQYLFKSDGSG
Smaller fluorescence value, A vs B ? Reply with the label of the item you choose.
A

Ref: patent US20190064177A1
